Catalogue of cell viability readings, one per entry.
tested on: U2OS; test: cell viability relative to DMSO; higher = less toxic; details: 72 h; 100 nM
// note: answer is a bare numeric in %

Study these solved cases before continuing.
* O=C1Nc2cc(Cl)c(Cl)cc2N2CCNC[C@H]12 | 100
* N=C(N)NCCC[C@H](N)C(=O)O | 99.6
* C[N+](C)(C)CC(=O)O | 98.8
* CCOC(=O)[C@H](C)C[C@@H](Cc1ccc(-c2ccccc2)cc1)NC(=O)CCC(=O)O | 96

Inquiry: Could you share which cell viability value was measured for CCC/N=C1\S/C(=C\c2ccc(OC[C@H](O)CO)c(Cl)c2)C(=O)N1c1ccccc1C ?
Reply text: 100

Inquiry: Same read-out for O=c1c(-n2ccnn2)c[nH]n1-c1cc(N2CCOCC2)ncn1 ?
Reply text: 94.7

Inquiry: Same read-out for COc1ccc(-c2ccc3ncc4c(c3c2)n(-c2ccc(N3CCNCC3)c(C(F)(F)F)c2)c(=O)n4C)cn1 ?
Reply text: 22.8
